Organism: Rattus norvegicus
Assay Procedure: Effective concentration required for relaxation of rat aortic rings
Type: functional
Experimental Setup: Aorta
pEC50: −log10 of the molar value.
Known pEC50 of a selection of compounds

>  <Structure Smiles String>
CC(=O)N[C@H](C(=O)O)C(C)(C)SN=O

>  <pEC50>
6.32

$$$$
>  <Structure Smiles String>
N[C@@H](CCC(=O)N[C@@H](CSN=O)C(=O)NCC(=O)O)C(=O)O

>  <pEC50>
6.97

$$$$
>  <Structure Smiles String>
N[C@H](CSN=O)C(=O)O

>  <pEC50>
8.68

$$$$
>  <Structure Smiles String>
CC(=O)N[C@@H](C(=O)O)C(C)(C)SN=O

>  <pEC50>
6.31

$$$$
>  <Structure Smiles String>
N[C@@H](CSN=O)C(=O)O

>  <pEC50>
8.70

$$$$
>  <Structure Smiles String>
N[C@H](CCC(=O)N[C@H](CSN=O)C(=O)NCC(=O)O)C(=O)O

>  <pEC50>
6.54

$$$$
